Where do these numbers come from? They come from patent US20110165161A1.

Target: T1, EGFI-Cr1 Q47A (human, UniProt P16422 24-63)
T1 construct: not shown: the constant region of human immunoglobulin gamma 1 heavy chain (Cr1) fused at the C-terminus
T1 chain: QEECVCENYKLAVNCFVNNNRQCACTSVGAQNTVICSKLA
Assay: direct ELISA, coated EGFI-Cr1 fusion, 0.1 µg/ml antibody
Method: A direct ELISA was used for testing the reactivity of anti-EpCAM antibodies toward variant EpCAM mutants. […] The optical densities at 450 nm wavelength were measured on an ELISA plate reader.
measured endpoint: relative binding activity (% of WT) (%)
Provide only the numeric value, understood in %.

Worked cases, relative binding activity (% of WT) given:
{"binder": "murine monoclonal antibody 4D2 (antibody, mouse IgG1, V domains shown, Mouse IgG1, kappa, from hybridoma; also called m338-4D2.20) VH: EVQLVESGGDLVKPGGSLKLSCAASGFAFDSYGMSWVRQTPGKRLEWVATISSGGYYTYYQDSVKGRFTTSRDNAKNTLDLQMSSLKSEDSAIYYCARRGNYDVDYYAMDYWGQGTSVTVSS VL: DVVMTQTPLSLPVSLGDQASISCRSSQSLVHSNGNTYLHWYLQKPGQSPKLLIYKVSNRFSGVPDRFSGSGSGTDFTLRISRVEAEDLGVYFCSQSTHVPPWTFGGGTKLEIKR", "unit text": "%", "relative binding activity (% of WT)": 23}
{"binder": "murine monoclonal antibody 1G10 (antibody, mouse IgG1, V domains shown, Mouse IgG1, kappa, from hybridoma; also called m290-1G10) VH: QIQLVQSGPELKKPGETVKISCKASGYTFTNYGMNWVKQAPGKGFKWMGWINTYTGEPTYADDFKGRFAFSLETSASTAYLQINNLQNEDMATYFCARWGYDFDYWGQGTTLTVSS VL: QIVLTQSPAIMSSSPGEKVTMTCSASSSISYMNWYQQKPGTSPKRWIYDTSKLASGVPARFSGSGSGTSYSLTISSMEAEDAATYYCHQRSSYPYTFGGGTKLEIKR", "unit text": "%", "relative binding activity (% of WT)": 49}

Would you kindly look at the next entry?
Prompt line: Consider the binder murine monoclonal antibody 2D11 (antibody, mouse IgG1, V domains shown, Mouse IgG1, kappa, from hybridoma; also called m322-2D11.19) VH: QIQLVQSGPELKKPGETVKISCKASGYTFTNYGMNWVKQAPGKGLKWMGWINTNTGEATYVEEFKGRVVFSLETSASTAYLQINNLKNEDTATYFCARIGYVWYFDVWGAGTTVTVSS VL: DIVMSQSPSSLAVSAGEKVTMSCKSSQSLFSSRTRKNYLAWYQQKPGQSPKLLIYWASTRESGVPDRFTGSGSGTDFTLTINSVQAEDLAVYYCKHSNNLFTFGSGTKLEIKR and give its recorded relative binding activity (% of WT).
Response line: 96
